Tested on: HPK1 pSLP76 (Ser376)
Experiment: Cellular assay phospho-SLP-76 (Ser376)
Format: cell-based, human
Conditions: SLP76 Ser376 phosphorylation after αCD3/αCD28 stimulation; Jurkat (human) or EL-4 (mouse) cells, table does not say which; read-out: HPK1 pSLP76 IC50
Experimental: Cellular Assay—Phospho-SLP-76 (Ser376). Inhibition of HPK1 enzymatic activity in cells was determined by detection of SLP76 phosphorylation at Ser376 residue in lysate from Jurkat (human) and EL-4 (mouse) cells. Jurkat and EL-4 cells express both HPK1 and SLP76 naturally. […] For detection, plates were read on the Envision and percent inhibition and IC50 were determined by Smart fit in Genedata Analyzer. […]
Where a name gives a salt, the structure may show the parent alone.
MEASUREMENT_TYPE: IC50

State, in one line, measured IC50 of CC(C)(O)COc1ccc(-c2cc(C(N)=O)c3ncnc(N[C@H]4CCCNC4)c3n2)cc1
< 500 nM

State, in one line, measured IC50 of C[C@@H]1COC[C@H](C)N1Cc1ccc(-c2cc(C(N)=O)c3ncnc(N[C@@H]4CNCCC4(F)F)c3n2)cc1
> 1000 nM

State, in one line, measured IC50 of NC(=O)c1cc(-c2ccc(OCC3(O)CC3)cc2)nc2c(N[C@@H]3CNCCC3(F)F)ncnc12
< 500 nM

State, in one line, measured IC50 of NC(=O)c1cc(-c2ccc(CN3C4CCC3COC4)cc2)nc2c(N[C@H]3CCCNC3)ncnc12
< 500 nM

State, in one line, measured IC50 of CC(C)(O)COc1ccc(-c2cc(C(N)=O)c3ncnc(N[C@@H]4CNCC[C@H]4F)c3n2)cc1
< 500 nM

State, in one line, measured IC50 of NC(=O)c1cc(-c2ccc(CN3CCO[C@H](C(F)(F)F)C3)cc2)nc2c(N[C@H]3CCCNC3)ncnc12
< 500 nM

State, in one line, measured IC50 of CN1CCc2cc(-c3cc(C(N)=O)c4ncnc(N[C@H]5CCCNC5)c4n3)nn2CC1=O
> 1000 nM

State, in one line, measured IC50 of Cn1cc(-c2cc(C(N)=O)c3ncnc(N[C@@H]4CNC[C@@H](F)C4)c3n2)cc1C#N
< 500 nM

State, in one line, measured IC50 of NC(=O)c1cc(-c2ccc(CN3CC4CCC(C3)O4)cc2)nc2c(N[C@H]3CCCNC3)ncnc12
< 500 nM

State, in one line, measured IC50 of NC(=O)c1cc(-c2cnn(C3CCOCC3)c2)nc2c(N[C@@H]3CNC[C@@H](F)C3)ncnc12
500 to 1000 nM

State, in one line, measured IC50 of CC(O)(C#N)COc1ccc(-c2cc(C(N)=O)c3ncnc(N[C@H]4CCCNC4)c3n2)cc1 (stereo partly drawn)
> 1000 nM

State, in one line, measured IC50 of COCCOc1ccc(-c2cc(C(N)=O)c3ncnc(N[C@H]4CNCC[C@@H]4F)c3n2)cc1
> 1000 nM

State, in one line, measured IC50 of C[C@H]1CN(Cc2ccc(-c3cc(C(N)=O)c4ncnc(N[C@H]5CCCNC5)c4n3)cc2)CCO1 [Example 27, dihydrochloride]
< 500 nM

State, in one line, measured IC50 of COC(C)(C)COc1ccc(-c2cc(C(N)=O)c3ncnc(N[C@H]4CCCNC4)c3n2)cc1
< 500 nM

State, in one line, measured IC50 of CC1(F)CN(Cc2ccc(-c3cc(C(N)=O)c4ncnc(N[C@H]5CCCNC5)c4n3)cc2)C1
< 500 nM

State, in one line, measured IC50 of CN1CCN(c2ccc(-c3cc(C(N)=O)c4ncnc(N[C@H]5CCCNC5)c4n3)cn2)CC1
< 500 nM

State, in one line, measured IC50 of C[C@@H]1CN(Cc2ccc(-c3cc(C(N)=O)c4ncnc(N[C@H]5CCCNC5)c4n3)cc2)C[C@@H](C)O1
500 to 1000 nM

State, in one line, measured IC50 of NC(=O)c1cc(-c2ccc(OC(F)(F)F)cc2)nc2c(N[C@H]3CCCNC3)ncnc12
500 to 1000 nM

State, in one line, measured IC50 of NC(=O)c1cc(-c2ccc(C3(O)CC3)cc2)nc2c(N[C@H]3CCCNC3)ncnc12
< 500 nM

State, in one line, measured IC50 of NC(=O)c1cc(-c2cc(F)c(OCC3(O)CCOCC3)c(F)c2)nc2c(N[C@@H]3CNC[C@@H](F)C3)ncnc12
< 500 nM

State, in one line, measured IC50 of Cc1nn(C)cc1-c1cc(C(N)=O)c2ncnc(N[C@H]3CCCNC3)c2n1
> 1000 nM

State, in one line, measured IC50 of Cn1cc(-c2cc(C(N)=O)c3ncnc(N[C@H]4CCCNC4)c3n2)cc1C#N
< 500 nM

State, in one line, measured IC50 of CC(C)(O)COc1ccc(-c2cc(C(N)=O)c3ncnc(N[C@@H]4CNC[C@@H](F)C4)c3n2)c(C#N)c1
< 500 nM

State, in one line, measured IC50 of NC(=O)c1cc(-c2cnn(CC(F)F)c2)nc2c(N[C@H]3CCCNC3)ncnc12
> 1000 nM

State, in one line, measured IC50 of NC(=O)c1cc(-c2cnn(C3CC3)c2)nc2c(N[C@@H]3CNC[C@@H](F)C3)ncnc12
500 to 1000 nM

State, in one line, measured IC50 of NC(=O)c1cc(-c2ccc(CN3CCOCC3)cc2)nc2c(NC34CNCC3C4)ncnc12 (stereo not drawn)
> 1000 nM

State, in one line, measured IC50 of NC(=O)c1cc(-c2ccc(N3CCC(O)C3)nc2)nc2c(N[C@@H]3CNC[C@@H](F)C3)ncnc12 (stereo partly drawn)
> 1000 nM
